- MEASURED ON: SARS-Cov-2 3CLpro (Severe acute respiratory syndrome coronavirus 2)
- Construct: 3CLpro and HRV3C was added using a Multidrop Combi
- ASSAY TEXT: biochemical
- EXPERIMENTAL PARAMETERS: 3CLpro, 30 mins preincubation, SAMDI-MS; read-out: SARS-Cov-2 IC50 (class)
pIC50: −log10 of the molar value.
Quick reference: pIC50 of the listed items.

COMPOUND	pIC50
CC(C)(C)[C@H](NC(=O)[C@@H]1CC1(F)F)C(=O)N1C[C@H]2[C@@H]([C@H]1C(=O)N[C@H](C#N)C[C@@H]1CCNC1=O)[C@H]1C=C[C@@H]2C1	> 7.70
CC(C)(C)[C@H](NC(=O)C(F)(F)Cl)C(=O)N1C[C@H]2[C@@H]([C@H]1C(=O)N[C@H](C#N)C[C@@H]1OCCNC1=O)[C@H]1C=C[C@@H]2C1	> 7.70
CC(C)(C)[C@H](NC(=O)C(F)(F)F)C(=O)N1C[C@H]2[C@@H]([C@H]1C(=O)NC(C#N)C[C@]13CC[C@H](C1)NC3=O)[C@H]1C=C[C@@H]2C1 (stereo partly drawn)	6.70 to 7.70
CC(C)(C)[C@H](NC(=O)C(F)(F)F)C(=O)N1C[C@@H]2[C@@H]([C@@H]3C=C[C@H]2CC3)[C@@H]1C(=O)N[C@H](C#N)C[C@@H]1CCNC1=O (relative stereo) [Compound 59a]	5.70 to 6.70
CO[C@H](C(C)C)[C@H](NC(=O)C(F)(F)C(F)(F)F)C(=O)N1C[C@H]2[C@@H]([C@H]1C(=O)N[C@H](C#N)C[C@@H]1CCNC1=O)[C@H]1C=C[C@@H]2C1	> 7.70
CC(C)(C)[C@H](NC(=O)[C@H]1CCCO1)C(=O)N1C[C@H]2[C@@H]([C@H]1C(=O)N[C@H](C#N)C[C@@H]1CCNC1=O)[C@H]1C=C[C@@H]2C1	5.70 to 6.70
CC(C)(C)[C@H](NC(=O)C(F)(F)F)C(=O)N1C[C@H]2[C@@H]([C@H]1C(=O)N[C@H](C#N)C[C@@H]1CCNC1=O)[C@H]1C=C[C@@H]2C1=O	> 7.70
O=C(NC1CC1)C(=O)C(C[C@@H]1CCNC1=O)NC(=O)[C@@H]1[C@@H]2[C@H](CN1C(=O)c1cc3c(Cl)cc(Cl)cc3[nH]1)[C@@H]1C=C[C@H]2C1 (stereo partly drawn)	> 7.70
CC(C)(C)[C@H](NC(=O)C(F)(F)F)C(=O)N1C[C@@H]2[C@@H]3CC[C@@H](C3)[C@@H]2[C@H]1C(=O)N[C@H](C#N)CC1CC2(CC(F)(F)C2)NC1=O (stereo partly drawn)	> 7.70
CC(C)(C)[C@H](NC(=O)C(F)(F)F)C(=O)N1C[C@@H]2[C@H]3C[C@H]([C@@H]4C[C@@H]43)[C@@H]2[C@H]1C(=O)N[C@H](C#N)C[C@@H]1CCNC1=O	6.70 to 7.70
CC(C)(C)[C@H](NC(=O)C(F)(F)C(F)(F)F)C(=O)N1C[C@@H]2[C@H]3C[C@@H]([C@@H]2[C@H]1C(=O)N[C@H](C#N)C[C@@H]1OCCNC1=O)[C@H](F)C3	> 7.70
CC(C)(C)[C@H](NC(=O)C1(C(F)(F)F)CC1)C(=O)N1C[C@H]2[C@@H]([C@H]1C(=O)N[C@H](C#N)C[C@@H]1CCNC1=O)[C@H]1C=C[C@@H]2C1	> 7.70
CC(C)(C)[C@H](NC(=O)C(F)(F)F)C(=O)N1C[C@H]2[C@@H]([C@H]1C(=O)N[C@H](C#N)C[C@@H]1CCNC1=O)[C@H]1C=C[C@@H]2C1	> 7.70
CC(C)(C)[C@H](NC(=O)C(F)(F)F)C(=O)N1C[C@H]2[C@@H]([C@H]1C(=O)N[C@H](C#N)C[C@@H]1OCCNC1=O)[C@H]1C=C[C@@H]2C1	> 7.70
CC(C)(C)[C@H](NC(=O)C(F)(F)Cl)C(=O)N1C[C@@H]2[C@@H]3CC[C@@H](C3)[C@@H]2[C@H]1C(=O)N[C@H](C#N)C[C@@H]1CCNC1=O	> 7.70
CC(C)(C)[C@H](NC(=O)C(F)(F)F)C(=O)N1C[C@@H]2[C@H]3C[C@@H]([C@@H]2[C@H]1C(=O)N[C@H](C#N)C[C@@H]1CCNC1=O)[C@H]1[C@@H]3C1(F)F	6.70 to 7.70
CC(C)(C)[C@H](NC(=O)C(F)(F)F)C(=O)N1C[C@H]2[C@@H]([C@H]1C(=O)N[C@H](C#N)C[C@@H]1CCNC1=O)[C@H]1C=C[C@@H]2CC1 (mixture of isomers) [Compound 59]	> 7.70
O=C(NC1CC1)C(=O)C(C[C@@H]1CCNC1=O)NC(=O)[C@@H]1[C@@H]2[C@H](CN1C(=O)c1nc3c(Cl)ccc(Cl)c3[nH]1)[C@@H]1C=C[C@H]2C1 (stereo partly drawn)	6.70 to 7.70
CC(C)(C)C(C(=O)N1C[C@H]2[C@@H]([C@H]1C(=O)N[C@H](C#N)C[C@@H]1CCNC1=O)[C@H]1C=C[C@@H]2C1)n1cc(C(F)(F)F)nn1 (stereo partly drawn)	6.70 to 7.70
CC(C)(C)[C@H](NC(=O)C(F)(F)F)C(=O)N1C[C@@H]2[C@@H]3CC[C@@H](C3)[C@@H]2[C@H]1C(=O)N[C@H](C#N)CC1Cc2ccccc2NC1=O (stereo partly drawn)	> 7.70
CC(C)(C)[C@H](NC(=O)C(F)(F)F)C(=O)N1C[C@H]2[C@@H]([C@H]1C(=O)N[C@H](C#N)C[C@@H]1Oc3ccccc3NC1=O)[C@H]1C=C[C@@H]2C1	> 7.70
